Reported values of EC50 for individual entries
target: ΔF508-CFTR (Homo sapiens, UniProt P13569, DEL508-508); test: Membrane potential optical (FRET/VIPR) assay, identification of correction compounds; conditions: Table 3; assay not given
Sequence (P13569 with tags, fused parts or gaps DEL508-508): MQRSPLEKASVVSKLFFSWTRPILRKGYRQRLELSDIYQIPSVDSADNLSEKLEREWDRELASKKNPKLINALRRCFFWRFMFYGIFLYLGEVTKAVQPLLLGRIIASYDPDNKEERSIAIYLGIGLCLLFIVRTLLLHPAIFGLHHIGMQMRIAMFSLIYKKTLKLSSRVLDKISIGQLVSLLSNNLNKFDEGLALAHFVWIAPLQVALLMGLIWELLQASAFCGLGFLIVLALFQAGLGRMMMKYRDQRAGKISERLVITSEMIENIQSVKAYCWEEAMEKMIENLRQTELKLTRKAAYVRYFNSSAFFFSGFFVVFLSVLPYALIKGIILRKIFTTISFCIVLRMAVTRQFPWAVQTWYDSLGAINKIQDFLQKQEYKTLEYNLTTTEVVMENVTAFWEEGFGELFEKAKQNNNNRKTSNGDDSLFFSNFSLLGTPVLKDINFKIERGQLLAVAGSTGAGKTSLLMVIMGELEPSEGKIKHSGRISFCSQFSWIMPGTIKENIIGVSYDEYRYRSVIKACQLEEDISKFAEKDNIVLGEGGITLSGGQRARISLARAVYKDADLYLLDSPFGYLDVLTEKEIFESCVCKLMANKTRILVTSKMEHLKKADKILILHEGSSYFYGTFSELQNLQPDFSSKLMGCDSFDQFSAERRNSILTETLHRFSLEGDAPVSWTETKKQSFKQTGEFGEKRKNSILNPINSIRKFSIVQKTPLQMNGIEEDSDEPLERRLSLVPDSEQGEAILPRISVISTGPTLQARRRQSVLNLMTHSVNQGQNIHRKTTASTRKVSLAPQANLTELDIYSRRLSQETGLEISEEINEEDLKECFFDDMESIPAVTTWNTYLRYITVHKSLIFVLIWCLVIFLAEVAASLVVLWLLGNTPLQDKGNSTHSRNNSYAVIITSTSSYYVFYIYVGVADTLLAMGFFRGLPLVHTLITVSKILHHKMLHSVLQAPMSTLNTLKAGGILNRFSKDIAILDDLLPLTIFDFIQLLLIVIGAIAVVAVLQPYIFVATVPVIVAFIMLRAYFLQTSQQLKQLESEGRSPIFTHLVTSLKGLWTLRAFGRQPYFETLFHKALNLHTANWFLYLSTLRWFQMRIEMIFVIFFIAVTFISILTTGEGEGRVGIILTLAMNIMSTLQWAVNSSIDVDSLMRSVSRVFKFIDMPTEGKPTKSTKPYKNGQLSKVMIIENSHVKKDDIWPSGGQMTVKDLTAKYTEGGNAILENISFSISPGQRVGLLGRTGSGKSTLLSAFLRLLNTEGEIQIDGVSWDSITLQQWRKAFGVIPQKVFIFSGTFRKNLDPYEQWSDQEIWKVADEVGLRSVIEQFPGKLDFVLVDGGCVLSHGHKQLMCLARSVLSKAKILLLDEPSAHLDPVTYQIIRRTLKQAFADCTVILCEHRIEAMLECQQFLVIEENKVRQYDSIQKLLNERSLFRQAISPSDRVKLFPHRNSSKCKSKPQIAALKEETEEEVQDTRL

Need EC50 of CN(C)C(c1ccc(S(C)(=O)=O)cc1)c1cnc(NC(=O)C2(c3ccc4c(c3)OCO4)CC2)s1 (centres unmarked) , thanks.
10 to 25 µM

Need EC50 of O=C(Nc1ncc(C(NC(CO)CO)c2ccccc2Cl)s1)C1(c2ccc3c(c2)OCO3)CC1 (centres unmarked) , thanks.
< 10 µM

Need EC50 of `COc1ccccc1C1(c2cnc(NC(=O)C3(c4ccc5c(c4)OCO5)CC3)s2)CC1` , thanks.
< 10 µM

Need EC50 of CC(C)(C)C(c1cnc(NC(=O)C2(c3ccc4c(c3)OCO4)CC2)s1)N1CCC[C@H]1C(N)=O (some centres unmarked) , thanks.
10 to 25 µM

Need EC50 of `COc1ccc(C2(C(=O)Nc3ncc(Cc4ccccc4OC)o3)CC2)cc1` , thanks.
< 10 µM

More entries:
Need EC50 of `Cc1csc(NC(=O)C2(c3ccc4c(c3)OCO4)CC2)c1C(N)=O` , thanks.
< 10 µM

Need EC50 of `O=C(Nc1ncc(Cc2ccccc2Cl)s1)C1(c2ccc(OC(F)(F)F)cc2)CC1` , thanks.
< 10 µM

Need EC50 of COc1cccc(C(c2cnc(NC(=O)C3(c4ccc5c(c4)OCO5)CC3)s2)N2CCOCC2)c1 (centres unmarked) , thanks.
< 10 µM
